Numbers sourced from ChEMBL document CHEMBL4808255.

biological target: Hypoxia-inducible factor 1-alpha (Homo sapiens); assay: Inhibition of hypoxia-induced HIF1 alpha transcriptional activity in human HeLa cells transfected with luciferase reporter containing of HRE assessed as reduction in luciferase activity incubated for 1 hrs under normoxic condition followed by incubation under hypoxic condition for 24 hrs by luciferase reporter gene assay
Sequence (Q16665 whole entry): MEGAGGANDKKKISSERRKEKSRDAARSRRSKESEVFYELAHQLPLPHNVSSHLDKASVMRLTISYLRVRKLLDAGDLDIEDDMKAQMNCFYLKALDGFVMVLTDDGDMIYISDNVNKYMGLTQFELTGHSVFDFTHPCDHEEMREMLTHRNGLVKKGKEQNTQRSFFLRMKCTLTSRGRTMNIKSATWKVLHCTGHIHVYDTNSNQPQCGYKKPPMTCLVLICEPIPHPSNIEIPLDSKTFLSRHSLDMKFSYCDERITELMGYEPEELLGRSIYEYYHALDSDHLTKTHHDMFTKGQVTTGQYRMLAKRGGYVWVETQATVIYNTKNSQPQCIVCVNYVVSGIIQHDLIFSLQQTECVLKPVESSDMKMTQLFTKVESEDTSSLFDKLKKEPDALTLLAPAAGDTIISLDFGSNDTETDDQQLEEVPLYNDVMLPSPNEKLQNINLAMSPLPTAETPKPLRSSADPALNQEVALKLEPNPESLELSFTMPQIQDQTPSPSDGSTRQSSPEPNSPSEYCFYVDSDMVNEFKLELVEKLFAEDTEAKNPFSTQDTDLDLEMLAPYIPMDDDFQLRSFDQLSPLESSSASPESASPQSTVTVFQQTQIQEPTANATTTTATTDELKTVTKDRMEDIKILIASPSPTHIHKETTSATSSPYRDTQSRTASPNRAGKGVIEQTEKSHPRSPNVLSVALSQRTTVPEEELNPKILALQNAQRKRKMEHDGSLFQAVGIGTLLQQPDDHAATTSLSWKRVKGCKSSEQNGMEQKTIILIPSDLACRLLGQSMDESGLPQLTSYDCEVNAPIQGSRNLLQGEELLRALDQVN
Recorded IC50 values for a group of compounds are listed next.
observation.type: IC50

- smiles.str: "COc1ccc(NC(=O)c2ccn(Cn3cc([N+](=O)[O-])cn3)n2)cc1"
  observed: "> 100 µM"
- smiles.str: "CC(C)C(=O)Nc1cnn(Cn2ccc(C(=O)Nc3ccc(C(F)(F)F)cc3)n2)c1"
  observed: "6.9 µM"
- smiles.str: "CC(=O)Nc1cnn(Cn2ccc(C(=O)Nc3ccc(Br)cc3)n2)c1"
  observed: "14 µM"
- smiles.str: "Nc1cnn(Cn2ccc(C(=O)Nc3ccc(Br)cc3)n2)c1"
  observed: "20 µM"
- smiles.str: "O=C(Nc1ccc(Cl)c(Cl)c1)c1ccn(Cn2cc([N+](=O)[O-])cn2)n1"
  observed: "13 µM"
- smiles.str: "O=C(Nc1ccc(Br)cc1)c1ccn(Cn2cnc([N+](=O)[O-])c2)n1"
  observed: "58 µM"
- smiles.str: "CCCNc1cnn(Cn2ccc(C(=O)Nc3ccc(C(F)(F)F)cc3)n2)c1"
  observed: "1.2 µM"
- smiles.str: "O=C(Nc1ccc(Br)cc1)c1ccn(Cn2ccc([N+](=O)[O-])c2)n1"
  observed: "27 µM"
- smiles.str: "O=C(Nc1ccc(Br)cc1)c1ccn(Cn2cccn2)n1"
  observed: "66 µM"
- smiles.str: "CCC(=O)Nc1cnn(Cn2ccc(C(=O)Nc3ccc(C(F)(F)F)cc3)n2)c1"
  observed: "1.2 µM"
- smiles.str: "O=C(Nc1ccc(Cl)cc1Cl)c1ccn(Cn2cc([N+](=O)[O-])cn2)n1"
  observed: "35 µM"
- smiles.str: "O=C(Nc1ccc(Cl)cc1)c1ccn(Cn2cc([N+](=O)[O-])cn2)n1"
  observed: "20 µM"
- smiles.str: "O=C(Nc1ccccc1O)c1ccn(Cn2cc([N+](=O)[O-])cn2)n1"
  observed: "> 100 µM"
- smiles.str: "O=C(Nc1cccc(Br)c1)c1ccn(Cn2cc([N+](=O)[O-])cn2)n1"
  observed: "35 µM"
- smiles.str: "O=C(Nc1ccc(C(F)(F)F)cc1)c1ccn(Cn2cc([N+](=O)[O-])cn2)n1"
  observed: "18 µM"
- smiles.str: "O=C(Nc1cccc(C(F)(F)F)c1)c1ccn(Cn2cc([N+](=O)[O-])cn2)n1"
  observed: "33 µM"
- smiles.str: "CC(C)c1ccc(NC(=O)c2ccn(Cn3cc([N+](=O)[O-])cn3)n2)cc1"
  observed: "21 µM"
- smiles.str: "O=C(Nc1ccccc1Br)c1ccn(Cn2cc([N+](=O)[O-])cn2)n1"
  observed: "45 µM"
- smiles.str: "O=C(Nc1ccc(F)cc1F)c1ccn(Cn2cc([N+](=O)[O-])cn2)n1"
  observed: "81 µM"
- smiles.str: "CCCC(=O)Nc1cnn(Cn2ccc(C(=O)Nc3ccc(C(F)(F)F)cc3)n2)c1"
  observed: "1.8 µM"
- smiles.str: "O=C(Nc1ccccc1)c1ccn(Cn2cc([N+](=O)[O-])cn2)n1"
  observed: "> 100 µM"
